Would you kindly list chromatographic logP for each of these molecules?
# procedure_text: physchem
# details: pH 2.7, log P [a], acidic range, pH 2.7, 0.1% aqueous formic acid/acetonitrile
Please reply with the value in numeric form only.

(Q) What value of chromatographic logP has been reported for the following molecule? CON=C(CC1CCCCC1)c1csc(C2CCN(C(=O)Cn3nc(C(F)F)cc3C(F)F)CC2)n1 [Compound I-60]
(A) 4.8

(Q) Query: chromatographic logP; subject: CCOc1ccccc1C(=O)CCc1csc(C2CCN(C(=O)Cn3nc(C(F)(F)F)cc3C)CC2)n1 [Compound I-20]
(A) 3.7

(Q) If you can, please state the reported chromatographic logP value of Cc1cc(C(F)(F)F)nn1CC(=O)N1CCC(c2nc(C(=O)CCc3ccccc3)cs2)CC1 [Compound I-14] .
(A) 3.64

(Q) Quick one: chromatographic logP for O=C(CC1CCCCC1)c1csc(C2CCN(C(=S)Cn3nc(C(F)F)cc3C(F)F)CC2)n1 [Compound I-58] ?
(A) 4.63

(Q) Looking for the measured chromatographic logP of Cc1ccc(Cl)cc1NC(=O)N1CCC(c2nc(C(=O)CC3CCCCC3)cs2)CC1 [Compound I-25] , can you help?
(A) 4.51

(Q) Which chromatographic logP reading was recorded for the molecule CCOc1ccccc1C(=O)C#Cc1csc(C2CCN(C(=O)Cn3nc(C(F)(F)F)cc3C)CC2)n1 [Compound I-11] ?
(A) 3.76

(Q) So what does the record say about chromatographic logP for Cc1cc(C(F)(F)F)nn1CC(=O)N1CCC(c2nc(C(=O)/C=C/c3c(F)cccc3F)cs2)CC1 [Compound I-12] ?
(A) 3.83

(Q) Query (molecule): O=C(/C=C/c1csc(C2CCN(C(=O)Cn3nc(C(F)F)cc3C(F)F)CC2)n1)c1c(F)cccc1F [Compound I-22] ; field requested: chromatographic logP
(A) 3.35

---

# details: acidic range, pH 2.7, 0.1% aqueous formic acid/acetonitrile
observed_property: log P [a]

(Q) # log P [a] lookup, item Cc1cc(C(F)(F)F)nn1CC(=O)N1CCC(c2nc(C(=O)Cc3ccccc3)cs2)CC1
(A) 3.36^[a]

(Q) Please look up its log P [a]: O=C(/C=C/c1csc(C2CCN(C(=O)Cn3nc(C(F)F)cc3C(F)F)CC2)n1)C1CCCCC1
(A) 3.89^[a]

(Q) Any idea what its log P [a] is? The compound is CC1CCCCC1C(=O)C=Cc1csc(C2CCN(C(=O)Cn3nc(C(F)F)cc3C(F)F)CC2)n1 (mixture of isomers)
(A) 4.11^[a]

(Q) Any idea what log P [a] was measured for Cc1cc(C(F)(F)F)nn1CC(=O)N1CCC(c2nc(C#CC(=O)C3CCCCC3)cs2)CC1 ?
(A) 4.15^[a]

(Q) Recorded log P [a] for O=C(/C=C/c1csc(C2CCN(C(=O)Cn3nc(C(F)F)cc3C(F)F)CC2)n1)c1ccccc1Br , please?
(A) 3.51^[a];

(Q) // query log P [a] value for entry CC(C)(C)C(=O)/C=C/c1csc(C2CCN(C(=O)Cn3nc(C(F)F)cc3C(F)F)CC2)n1
(A) 3.45^[a]

(Q) Record request: log P [a] value, item Cc1ccc(C)c(NC(=O)N2CCC(c3nc(/C=C/C(=O)c4c(F)cccc4F)cs3)CC2)c1
(A) 3.56^[a]

---

For each of the compounds below, state its efficacy.
# Tested on: Phytophthora infestans
# Assay type: in vivo
# details: tomato plants, protective, active compound concentration 500 ppm, evaluation 7 days after inoculation
Please state the figure in %; there is no need to write the unit.

(Q) Please state recorded efficacy (tested on Phytophthora infestans) of Cc1ccc(C)c(NC(=O)N2CCC(c3nc(/C=C/C(=O)c4c(F)cccc4F)cs3)CC2)c1 [Compound I-23]
(A) 70

(Q) What value of efficacy on Phytophthora infestans does C#CCOc1ccccc1C(=O)/C=C/c1csc(C2CCN(C(=O)Cn3nc(C(F)F)cc3C(F)F)CC2)n1 [Compound I-55] have?
(A) 98

(Q) Please provide the recorded efficacy for Cc1ccccc1C(=O)/C=C/c1csc(C2CCN(C(=O)Cn3nc(C(F)F)cc3C(F)F)CC2)n1 [Compound I-45] , tested on Phytophthora infestans.
(A) 95

(Q) Entry O=C(CC1CCCCC1)c1csc(C2CCN(C(=O)Nc3cc(C(F)F)ccc3C(F)F)CC2)n1 [Compound I-30] , system Phytophthora infestans: what efficacy was measured?
(A) 95

---

Would you kindly list log P [a] for each of these compounds?
# details: acidic range, pH 2.7, 0.1% aqueous formic acid/acetonitrile

(Q) Endpoint output: log P [a] of Cc1cc(C(F)(F)F)nn1CC(=O)N1CCC(c2nc(C(=O)CC(C)(C)c3ccccc3)cs2)CC1 . Value?
(A) 4.08^[a]

(Q) Report log P [a] for O=C(/C=C/c1csc(C2CCN(C(=O)Cn3nc(C(F)F)cc3C(F)F)CC2)n1)c1cccc(F)c1 [Compound I-41] please.
(A) 3.48^[a]

(Q) For the compound O=C(/C=C/c1csc(C2CCN(C(=O)Cn3nc(C(F)F)cc3C(F)F)CC2)n1)c1c(F)cc(F)cc1F , what log P [a] is on record?
(A) 3.51^[a];

(Q) Returns the measured log P [a] for the input compound. Input: Cc1cc(C(F)(F)F)nn1CC(=O)N1CCC(c2nc(C(=O)CC3CCCCC3)cs2)CC1
(A) 4.13^[a];

---

# procedure_text: physchem
# details: pH 2.7
Range-based classes on measured chromatographic logP: lo = under 3, med = from 3 up to 4, hi = 4 and over

(Q) Which category fits this record: CC(C)(C)OC(=O)N1CCC(c2nc(C(O)CCc3ccccc3)cs2)CC1 (stereo not shown) [XVI-1]
(A) med

(Q) Sort into band: O=C(CCc1ccccc1)c1csc(C2CCNCC2)n1 [II-2]
(A) lo

(Q) Form field 'band' for C#Cc1csc(C2CCN(C(=O)Cn3nc(C(F)(F)F)cc3C)CC2)n1 [XX-1]
(A) lo

(Q) // bin(item) where item = C#Cc1csc(C2CCN(C(=O)OC(C)(C)C)CC2)n1 [VI-1]
(A) med

(Q) The entry to classify is CON(C)C(=O)c1csc(C2CCN(C(=O)OC(C)(C)C)CC2)n1 [Compound V-1] ; which class holds it?
(A) lo

(Q) Form: Item = CCOc1ccccc1C(=O)C#Cc1csc(C2CCN(C(=O)Cn3nc(C(F)(F)F)cc3C)CC2)n1 [Compound I-11] ; Class = ?
(A) med

(Q) GET /class?item= CC(C)(C)OC(=O)N1CCC(c2nc(C(=O)CC3CCCCC3)cs2)CC1 [IV-1]
(A) hi

(Q) Sort into band: O=C(CC1CCCCC1)c1csc(C2CCNCC2)n1 [II-1]
(A) lo

(Q) Which chromatographic logP band matches CC(C)(C)OC(=O)N1CCC(c2nc(/C=C/C(=O)c3c(F)cccc3F)cs2)CC1 [IV-3] ?
(A) hi

(Q) Bin? CC(C)(C)OC(=O)N1CCC(c2nc(C(=O)CCc3ccccc3)cs2)CC1 [IV-2]
(A) hi
